Numbers sourced from patent US8957084B2.

Here the recorded Ki is given for each entry.
Target: μ-opioid receptor (Homo sapiens (Human), UniProt P35372)
Experiment: μ-opioid receptor radioligand dose-displacement binding assay ([3H]-diprenorphine)
Settings: [3H]-diprenorphine displacement
Description: Radioligand dose-displacement binding assays for μ-opioid receptors used 0.3 nM [^3H]-diprenorphine (Perkin Elmer, Shelton, Conn.), with […] membrane protein/well in a final volume of 500 μl binding buffer (10 mM MgCl2, 1 mM EDTA, 5% DMSO, 50 mM HEPES, pH 7.4). […] BetaScint scintillation cocktail (Perkin Elmer, Shelton, Conn.) was added (50 μl/well), and plates were counted using a Packard Top-Count for 1 min/well. […]
observation_type: Ki (nM)

1) C=CCOC1C[C@]23CCN(CC4CC4)[C@H](Cc4ccc(OC)cc42)C3C2CC12 (stereo partly shown) = 30
2) COc1ccc2c(c1)[C@]13CCN(CC4CC4)[C@H](C2)[C@@H]1[C@H]1C2CCC(CC2)[C@H]1C(=O)C3 = 242
3) COc1ccc2c(c1)[C@]13CCN(CC4CC4)[C@H](C2)[C@@H]1C1CC1C(=O)C3 (stereo partly shown) = 112
4) C=C1C[C@@]23CCN(CC4CC4)[C@H](Cc4ccc(OC)cc42)C3C2CC12 (stereo partly shown) = 142
